RUN_DESCRIPTION: In-vivo absorption test in rats, oral gavage, lamotrigine in blood serum by HPLC-UV
Parameters: species or system Rats Sprague-Dawley
EXPERIMENTAL_CONTEXT: Sprague-Dawley, rat, plasma, po, 10 mg/kg
Method: Rats historically have been used in safety evaluation and PK screening studies and are recommended by appropriate regulatory agencies. Dose preparation; dose is prepared and suspended in 1 ml of 5% PEG 400 with 95% methylcellulose solution (weight percentage); methylcellulose solution is prepared by dissolving 0.5% methylcellulose in water (weight percentage). The machine was operated by Total Chrome Workstation (Perkin Elmer Instruments LLC).
READOUT_NAME: concentration at 1 h

chemical_structure=Nc1nnc(-c2cccc(Cl)c2Cl)c(N)n1 readout_name="concentration at 1 h" value_observed="2240 ng/mL"

====

RUN_DESCRIPTION: In-vivo absorption test in rats, oral gavage, lamotrigine in blood serum by HPLC-UV
Parameters: species or system Rats Sprague-Dawley
EXPERIMENTAL_CONTEXT: Sprague-Dawley, rat, plasma, po, 10 mg/kg
READOUT_NAME: concentration at 0 h (ng/mL)

chemical_structure=Nc1nnc(-c2cccc(Cl)c2Cl)c(N)n1 readout_name="concentration at 0 h" unit_spec=ng/mL value_observed=0

====

RUN_DESCRIPTION: In-vivo absorption test in rats, oral gavage, lamotrigine in blood serum by HPLC-UV
Set-up: species or system Rats Sprague-Dawley
EXPERIMENTAL_CONTEXT: Sprague-Dawley, rat, plasma, po, 10 mg/kg
READOUT_NAME: concentration at 3 h (ng/mL)

compound="Nc1nnc(-c2cccc(Cl)c2Cl)c(N)n1 [Lamotrigine]" readout_name="concentration at 3 h" value_observed=2420

====

RUN_DESCRIPTION: In-vivo absorption test in rats, oral gavage, lamotrigine in blood serum by HPLC-UV
Parameters: species or system Rats Sprague-Dawley
EXPERIMENTAL_CONTEXT: Sprague-Dawley, rat, plasma, po, 10 mg/kg
READOUT_NAME: concentration at 8 h (ng/mL)

chemical_structure=Nc1nnc(-c2cccc(Cl)c2Cl)c(N)n1 value_observed=2680

====

RUN_DESCRIPTION: In-vivo absorption test in rats, oral gavage, lamotrigine in blood serum by HPLC-UV
Set-up: species or system Rats Sprague-Dawley
EXPERIMENTAL_CONTEXT: Sprague-Dawley, rat, plasma, po, 10 mg/kg
READOUT_NAME: concentration at 12 h (ng/mL)

chemical_structure=Nc1nnc(-c2cccc(Cl)c2Cl)c(N)n1 readout_name="concentration at 12 h" unit_spec=ng/mL value_observed=2860

====

RUN_DESCRIPTION: In-vivo absorption test in rats, oral gavage, lamotrigine in blood serum by HPLC-UV
Parameters: species or system Rats Sprague-Dawley
EXPERIMENTAL_CONTEXT: Sprague-Dawley, rat, plasma, po, 10 mg/kg
READOUT_NAME: concentration at 0.5 h (ng/mL)

molecule="Nc1nnc(-c2cccc(Cl)c2Cl)c(N)n1 [Lamotrigine]" readout_name="concentration at 0.5 h" unit_spec=ng/mL value_observed=1590

====

RUN_DESCRIPTION: In-vivo absorption test in rats, oral gavage, lamotrigine in blood serum by HPLC-UV
Parameters: species or system Rats Sprague-Dawley
EXPERIMENTAL_CONTEXT: Sprague-Dawley, rat, plasma, po, 10 mg/kg
READOUT_NAME: concentration at 4 h (ng/mL)

chemical_structure=Nc1nnc(-c2cccc(Cl)c2Cl)c(N)n1 value_observed=2480

Numbers sourced from patent US8486927B2.
